# assayed system: Aryl hydrocarbon receptor (Homo sapiens) (UniProt P35869)
# Sequence (P35869 whole entry, looked up): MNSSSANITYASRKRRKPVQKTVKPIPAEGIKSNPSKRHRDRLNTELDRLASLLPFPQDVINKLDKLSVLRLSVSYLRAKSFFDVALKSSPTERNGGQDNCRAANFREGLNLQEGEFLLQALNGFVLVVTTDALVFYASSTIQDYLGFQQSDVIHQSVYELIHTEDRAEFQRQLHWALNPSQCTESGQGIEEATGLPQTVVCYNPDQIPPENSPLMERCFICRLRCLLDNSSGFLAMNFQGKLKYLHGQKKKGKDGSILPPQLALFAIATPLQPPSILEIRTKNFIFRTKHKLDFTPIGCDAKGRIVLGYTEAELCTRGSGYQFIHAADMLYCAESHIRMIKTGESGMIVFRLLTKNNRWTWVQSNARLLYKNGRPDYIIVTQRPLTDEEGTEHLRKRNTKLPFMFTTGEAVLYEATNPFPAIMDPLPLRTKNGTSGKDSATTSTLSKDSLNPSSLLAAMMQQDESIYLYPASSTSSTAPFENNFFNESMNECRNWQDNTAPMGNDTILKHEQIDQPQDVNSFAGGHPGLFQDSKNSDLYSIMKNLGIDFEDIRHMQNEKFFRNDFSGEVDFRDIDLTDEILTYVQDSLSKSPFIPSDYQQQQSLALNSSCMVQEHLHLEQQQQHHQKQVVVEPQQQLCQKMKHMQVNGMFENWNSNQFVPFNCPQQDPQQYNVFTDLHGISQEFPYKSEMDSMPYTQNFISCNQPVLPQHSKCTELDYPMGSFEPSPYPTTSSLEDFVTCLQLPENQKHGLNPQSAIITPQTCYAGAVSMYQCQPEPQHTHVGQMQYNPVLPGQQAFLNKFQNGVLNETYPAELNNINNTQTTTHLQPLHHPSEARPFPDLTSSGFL
# protocol notes: AHR activators, primary screen, cell-based, luminescence, luciferase reporter, human (AID 2796);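 also: 0% = vehicle wells and 100% = reference agonist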
# condition info: AHR-responsive luciferase reporter cells, at 5 µM
Screen size: about 320,000 compounds; about 8,000 (2.5%) were called active. Rule as the data show it: active = activation above about 47%; inactive = the rest. The sample as a whole holds a higher share of actives than the screen did.
Possible outcomes: active, inactive

compound | class assignment
CC(C)CNC(=O)COC(=O)c1ccccc1OCC(=O)Nc1ccc(Br)cc1 | inactive
Cc1sc2ncn(CC(=O)NCCCC(=O)N3CCN(c4ccccc4F)CC3)c(=O)c2c1C | inactive
Nc1nnn(CC(=O)N/N=C/c2ccccc2)n1 | inactive
CC(C)CNc1ncnc2c1cnn2Cc1ccc(Cl)cc1 | inactive
Cc1c(C)c(C)c2[nH]c(=S)[nH]c2c1C | active
O=C(Cc1nc2ccccc2[nH]c1=O)c1ccc(Cl)cc1 | active
COc1ccccc1CCNC(=O)CN1C(=O)NC2(CCCC2)C1=O | inactive
Cc1noc(C)c1NC(=O)Nc1ccc2c(c1)C(=O)N([C@H](C)CO)C[C@H](C)[C@@H](CN(C)S(=O)(=O)c1cn(C)cn1)O2 | inactive
CCC(c1nnnn1Cc1ccco1)N(CCc1ccccc1)Cc1cc2cccc(C)c2[nH]c1=O (stereo not given) | inactive
Cc1cccc2cc(CN(Cc3nnnn3Cc3ccccc3)C3CCCC3)c(=O)[nH]c12 | inactive

###

# assayed system: Aryl hydrocarbon receptor (Homo sapiens)
# protocol notes: AHR activators, primary screen, cell-based, luminescence, luciferase reporter, human (AID 2796);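 also: 0% = vehicle wells and 100% = reference agonist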
# condition info: AHR-responsive luciferase reporter cells, at 5 µM, hits give high values
Hit rate of the full screen: of about 320,000 compounds, about 8,000 (2.5%) were called active. The full list was thinned out, with actives kept by preference.
metric name: activation (%)

compound | measured number
O=C(COC(=O)c1ccc([N+](=O)[O-])o1)NC12CC3CC(CC(C3)C1)C2 | 0.67
O=C(CCN1C(=O)[C@H]2CC=CC[C@H]2C1=O)NCc1nc(-c2ccccc2)no1 | 1.79
CC(C)NC(=S)Nc1cccc2cnccc12 | 15
CS(=O)(=O)N1CCCC(C(=O)N2CCOCC2)C1 (stereo not drawn) | -4.42
COc1cc(OC)c(C(=O)Nc2ccc(N(C)C)cc2)cc1OC | -7.49
O=C(COC(=O)c1n[nH]c2ccccc12)Nc1ccccc1Br | 53.9
CC1(C)Oc2ccc(C(=O)N3CCOCC3)cc2N(CC(=O)Nc2ccccc2)C1=O | 1.48
COc1ccc(CN2CCCC(C(=O)N3CCCCC3)C2)cc1 (stereo not drawn) | -0.87
Cc1ccc(C2(C(F)(F)F)N=C3Sc4cc(C)cc(C)c4N3C(=O)N2)cc1 (stereo not drawn) | 70.8
C/C=C(\C)C(=O)N1CC2(CC(c3cccc(NC(=O)CCCCC)c3)=NO2)C[C@@H]1C(N)=O (stereo partly drawn) | 2.15
O=C(CNC(=O)c1ccc2ccccc2c1)Nc1ncccc1O | 10.7
COC(=O)c1ccc(NC(=O)c2cc(Cl)ccc2OC)cc1 | 2.68
C/C(=N\NC(=O)CNc1cccc2ccccc12)c1ccc(Br)s1 | 91.4
COc1ccc(C(=O)COC(=O)c2ccc3ccccc3n2)cc1 | 2.48
COc1ccc(N2CCN(C(=O)c3ccc(N4CCCCS4(=O)=O)cc3)CC2)cc1 | 1.84
CCOc1ccccc1CN1CCN(C2CCC2)CC1CCO (stereo not drawn) | -2.26
Cc1cccc(/C=N/NC(=O)CNc2cccc3ccccc23)n1 | 46
Cn1cccc1/C=N/NC(=O)CNc1cccc2ccccc12 | 5.35
COc1cccc(CNC(=O)CCN2C(=S)NC(C)(C)CC2C)c1 (stereo not drawn) | 3.02
C(=N/Nc1cc(N2CCOCC2)nc(N2CCOCC2)n1)/c1ccccc1 | -0.44
COc1ccc(Cl)cc1C(=O)NNC(=S)NC(=O)/C=C/c1ccco1 | 4.8
Cc1ccc(SC(CC(=O)c2ccc(C(C)(C)C)cc2)C(=O)O)cc1 (stereo not drawn) | -1.16
NC(=O)N/N=C\c1cccs1 | -0.87

###

# assayed system: Aryl hydrocarbon receptor (Homo sapiens)
# protocol notes: AHR activators, primary screen, cell-based, luminescence, luciferase reporter, human (AID 2796);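 also: 0% = vehicle wells and 100% = reference agonist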
# condition info: AHR-responsive luciferase reporter cells, at 5 µM, hits give high values
The whole screen tested about 320,000 compounds, of which about 8,000 (2.5%) were called active. The sample as a whole holds a higher share of actives than the screen did.

compound | activation / %
Cc1ccc(C(=O)N/C(=C\c2cccs2)C(=O)NCCc2ccccn2)cc1C | 0.25
COc1ccccc1NC(=O)c1cc(Cl)nnc1Cl | 17.1
CC(C)(C)OC(=O)C[C@@H]1C/C=C\C[C@@H](CC(=O)N(CCO)Cc2ccccc2)C(=O)N[C@H](Cc2ccccc2)COC1=O | 2.29
CCCCNC(=S)N/N=C1\CCCCc2ccccc21 | 13.7
O=C(Nc1ccccc1)c1ccc(NC(=O)c2cccs2)cc1 | -3.44
CC(C)N(Cc1nnc(-c2ccccc2Br)o1)C(=O)c1cc(Cl)nc2ccccc12 | 18.6
CCc1ccccc1N(CC(=O)NCC1CCCO1)C(=O)CCC(=O)Nc1nccs1 (centres undefined) | -2.18
CC1(C)CC(=O)C=C(NCCN2CCNCC2)C1 | 3.32
Cc1cccc(C)c1NC(=O)C1CCCN1C(=O)OC(C)(C)C (centres undefined) | 4.06
CC(C)C(=O)Nc1ccc2c(c1)oc1ccccc12 | 60.8
CC1=NNC(=O)C1CC(=O)N/N=C/c1ccncc1 (centres undefined) | -0.52
Nc1c(NCCc2ccccc2)c2ccccc2oc1=O | 67.9
Cc1cc(C(=O)NNS(=O)(=O)c2ccccc2C(F)(F)F)nn1C(C)(C)C | 33.2
COc1ccc(C(=O)NC(=S)Nc2ccccc2N2CCN(S(C)(=O)=O)CC2)cc1OC | 0.97
COc1cccc(NC(=S)N(CCc2c(C)[nH]c3ccccc23)Cc2ccco2)c1 | 12
CCN(CC(=O)Nc1c(F)cccc1F)C(=O)C1CCC1 | -0.62
COc1ccc(CCNS(=O)(=O)c2ccc(Cl)s2)cc1OC | 1.04
CCCCn1nc(C(=O)Nc2ccc(S(=O)(=O)Nc3ncccn3)cc2)c2ccccc2c1=O | 2.56
COc1ccc(N2C(=O)c3ccccc3NC2c2ccc(OC)c(CN3CCOCC3)c2)cc1 (centres undefined) | 4.09
COc1ccc(-c2cc(C(=O)Nc3ccccc3O)c3ccccc3n2)cc1 | -7.68
Cc1cc(OC(=O)c2ccc(Cl)cc2)cc(=O)n1C | -0.96
COc1ccc(NS(=O)(=O)c2cc(NC(=O)c3ccc(S(=O)(=O)N(C)C)cc3)ccc2N2CCOCC2)cc1 | 0.52
COc1ccc(C(CNC(=O)c2cccc(S(=O)(=O)Nc3ccccc3Cl)c2)N2CCOCC2)cc1 (centres undefined) | 8.55
COc1ccccc1C(=O)NC(=S)Nc1ccccc1N1CCCCC1 | 76.4
O=S(=O)(Nc1ccc(O)c2ccccc12)c1ccc(OC(F)(F)F)cc1 | 33.7
C/C(=N/NC(=S)Nc1ccccc1)c1ccc2c(c1)OCO2 | 111
COc1ccccc1C(=O)NCC(=O)OCC(=O)NNC(=O)c1ccc(Br)cc1 | 0.52
COCCNC(=S)N(CCc1c(C)[nH]c2ccc(C)cc12)Cc1cccnc1 | 20.1
COc1ccc(C(=O)O)cc1S(=O)(=O)NC1CCN(Cc2ccccc2)CC1 | -0.69
CC(C)C(=O)Nc1c(O)c2ccccc2[nH]c1=O | -0.12
CCC(C)(C(=O)NC1CCCCC1)N(C)C(=O)c1ccc2c(c1)OCO2 (centres undefined) | -0.09
CCc1ccc(C(=O)OCC(=O)NCC(F)(F)F)cc1 | 1.13
O=Cc1c(NCCc2cccc(F)c2)c2ccccc2[nH]c1=O | 1.73
Cc1cccc(N=C2SC(C)CN2C(=O)CN2C(=O)NC3(CCCC3)C2=O)c1 (centres undefined) | 2.39
CN(C)NC(=O)c1csnc1-c1c(Cl)cccc1Cl | 1.27
Cc1cc(NC(=O)CCC(=O)N(CC(=O)NCC2CCCO2)c2ccccc2)no1 (centres undefined) | -0.82
CC(C)C(=O)Nc1c(C(=O)c2ccc(F)cc2)oc2ccccc12 | 132
N#C/C(=C(/O)COc1cccc2ccccc12)c1nc2ccccc2[nH]1 | 93.7
CCOC(=O)c1ccc(NC(=O)C2CC(=O)N(c3ccc4c(c3)OCCO4)C2)cc1 (centres undefined) | -1.04
O=C(Nc1ccc(C(=O)N2CCCCC2)cc1)c1cccc([N+](=O)[O-])c1 | -1.69
CC(C)CCN1CCN(Cc2ccc(C(F)(F)F)cc2)CC1CCO (centres undefined) | 1.42
O=C(Nc1ccc(Br)cc1F)C1CC(=O)N(C2CCCCC2)C1 (centres undefined) | 0.73
O=C(O)c1cccnc1NC1CCCC1 | -0.53
CCCN(CCc1ccccc1)C1CCc2c(O)cccc2C1 (centres undefined) | 3.78
